Data origin, for the record: the supplement of paper PMC11061612

test system: NY (Osteosarcoma); assay: combination Emax (second highest fraction inhibited in the dose matrix, 72 h); higher = more inhibition; extreme values may be limits of the assay
Property label: combination Emax
# output: bare number, no unit

Solved entries (count: 2):
{"Compound": "CC1(C)CCC(CN2CCN(c3ccc(C(=O)NS(=O)(=O)c4ccc(NCC5CCOCC5)c([N+](=O)[O-])c4)c(Oc4cnc5[nH]ccc5c4)c3)CC2)=C(c2ccc(Cl)cc2)C1 [Venetoclax] + C[C@@H](Nc1cc(F)cc(F)c1)c1cc(C(=O)N(C)C)cc2c(=O)cc(N3CCOCC3)oc12 [AZD8186] (first compound max 1 µM, 7x7, partner max 3 µM)", "Test value": 0.616}
{"Compound": "CN(CCO)CC[C@H](CSc1ccccc1)Nc1ccc(S(=O)(=O)NC(=O)c2ccc(N3CCC([C@@H](O)c4ccccc4-c4ccc(Cl)cc4)CC3)cc2)cc1S(=O)(=O)C(F)(F)F [AZD4320] + CC(=O)O[C@H]1C(=O)[C@@]2(C)[C@H]([C@H](OC(=O)c3ccccc3)[C@]3(O)C[C@H](OC(=O)[C@H](O)[C@@H](NC(=O)c4ccccc4)c4ccccc4)C(C)=C1C3(C)C)[C@]1(OC(C)=O)CO[C@@H]1C[C@@H]2O [Paclitaxel] (first compound max 1 µM, 7x7, partner max 3 µM)", "Test value": 0.981}

Pending compound:
# input For the compound shown here, C[C@@H]1COCCN1c1cc(C2([S@](C)(=N)=O)CC2)nc(-c2ccnc3[nH]ccc23)n1 [AZD6738] + C1CC(C1)(C(=O)[O-])C(=O)[O-].N.N.[Pt+2] [Carboplatin] (first compound max 10 µM, 7x7, partner max 10 µM) , give the reported combination Emax.
# output 0.568

* * *

system: NCI-H1693 (Lung Adenocarcinoma); assay: Bliss excess, mean over the matrix (fraction); higher = more synergy
Property label: Bliss excess
# output: bare number, no unit

Solved entries (count: 2):
{"Molecule": "COc1cc2ncnc(Nc3ccc(F)c(Cl)c3)c2cc1OCCCN1CCOCC1 [Gefitinib] + CC(C)n1c(=O)n(C)c2cnc3cc(F)c(-c4ccc(OCCCN5CCCCC5)nc4)cc3c21 [AZD1390] (first compound max 10 µM, 7x7, partner max 0.3 µM)", "Test value": -0.04}
{"Molecule": "Cc1cc2ncnn2cc1Nc1ncc2c(n1)n(C1CCOCC1)c(=O)n2C [AZD7648] + C[C@@H]1COCCN1C2=NC(=NC(=C2)C3(CC3)[S@](=N)(=O)C)C4=C5C=CNC5=NC=C4 [AZD6738] (first compound max 10 µM, 7x7, partner max 10 µM)", "Test value": 0.0177}

Pending molecule:
# input For the molecule shown here, Cc1c2c(nn1C)CSCc1cc(n(C)n1)CSc1cc(c3ccccc3c1)OCCCc1c(C(=O)O)n(C)c3c-2c(Cl)ccc13 [AZD5991] + C1CN(CCC1(C(=O)N[C@@H](CCO)C2=CC=C(C=C2)Cl)N)C3=NC=NC4=C3C=CN4 [Capivasertib] (first compound max 1 µM, 7x7, partner max 3 µM) , give the reported Bliss excess.
# output -0.0294

* * *

system: LN-405 (Glioblastoma); assay: combination Emax (second highest fraction inhibited in the dose matrix, 72 h); higher = more inhibition; extreme values may be limits of the assay
Each entry below lists one item and its recorded combination Emax value.
# output: bare number, no unit

{"Molecule": "COc1cccc(OCCCN)c1-c1cc(Nc2cnc(C#N)cn2)n[nH]1 [Prexasertib] + C[C@@H]1COCCN1C2=NC(=NC(=C2)C3(CC3)[S@](=N)(=O)C)C4=C5C=CNC5=NC=C4 [AZD6738] (first compound max 1 µM, 7x7, partner max 10 µM)", "combination Emax": 0.553}

Pending molecule:
# input For the molecule shown here, COc1nnc2ccc(N3CCC(c4ccc(OCCN5CCN(C)C(=O)[C@H]5C)cc4)CC3)nn12 [AZD5153] + CC1(C)CCC(CN2CCN(c3ccc(C(=O)NS(=O)(=O)c4ccc(NCC5CCOCC5)c([N+](=O)[O-])c4)c(Oc4cnc5[nH]ccc5c4)c3)CC2)=C(c2ccc(Cl)cc2)C1 [Venetoclax] (first compound max 1 µM, 7x7, partner max 1 µM) , give the reported combination Emax.
# output 0.441

* * *

system: HCC1954 (Breast Carcinoma); test: Bliss excess, mean over the matrix (fraction); higher = more synergy
Property label: Bliss excess
# output: bare number, no unit

# input For the compound shown here, CC1(C)CCC(CN2CCN(c3ccc(C(=O)NS(=O)(=O)c4ccc(NCC5CCOCC5)c([N+](=O)[O-])c4)c(Oc4cnc5[nH]ccc5c4)c3)CC2)=C(c2ccc(Cl)cc2)C1 [Venetoclax] + Cc1cc2ncnn2cc1Nc1ncc2c(n1)n(C1CCOCC1)c(=O)n2C [AZD7648] (first compound max 1 µM, 7x7, partner max 10 µM) , give the reported Bliss excess.
# output -0.0034

# input For the compound shown here, CCN(CCO)CCCOc1ccc2c(Nc3cc(CC(=O)Nc4cccc(F)c4)[nH]n3)ncnc2c1 [AZD2811] + O=C(c1cc(Cc2n[nH]c(=O)c3ccccc23)ccc1F)N1CCN(C(=O)C2CC2)CC1 [Olaparib] (first compound max 1 µM, 7x7, partner max 10 µM) , give the reported Bliss excess.
# output -0.0023

# input For the compound shown here, COc1cccc(OCCCN)c1-c1cc(Nc2cnc(C#N)cn2)n[nH]1 [Prexasertib] + C=CCn1c(=O)c2cnc(Nc3ccc(N4CCN(C)CC4)cc3)nc2n1-c1cccc(C(C)(C)O)n1 [AZD1775] (first compound max 1 µM, partner max 1 µM) , give the reported Bliss excess.
# output 0.114

# input For the compound shown here, COc1nnc2ccc(N3CCC(c4ccc(OCCN5CCN(C)C(=O)[C@H]5C)cc4)CC3)nn12 [AZD5153] + Cc1c2c(nn1C)CSCc1cc(n(C)n1)CSc1cc(c3ccccc3c1)OCCCc1c(C(=O)O)n(C)c3c-2c(Cl)ccc13 [AZD5991] (first compound max 1 µM, 7x7, partner max 1 µM) , give the reported Bliss excess.
# output 0.0771

* * *

tested on: JSC-1 (B-Cell Non-Hodgkin's Lymphoma); assay: combination Emax (second highest fraction inhibited in the dose matrix, 72 h); higher = more inhibition; extreme values may be limits of the assay
Property label: combination Emax
# output: bare number, no unit

{"Compound": "NC1(C(=O)N[C@@H](CCO)c2ccc(Cl)cc2)CCN(c2ncnc3[nH]ccc23)CC1 [Capivasertib] + C[C@@H]1COCCN1C2=NC(=NC(=C2)C3(CC3)[S@](=N)(=O)C)C4=C5C=CNC5=NC=C4 [AZD6738] (first compound max 10 µM, 7x7, partner max 10 µM)", "Property label": "combination Emax", "Test value": 0.95}
{"Compound": "C=CCn1c(=O)c2cnc(Nc3ccc(N4CCN(C)CC4)cc3)nc2n1-c1cccc(C(C)(C)O)n1 [AZD1775] + C1CN(CCC1(C(=O)N[C@@H](CCO)C2=CC=C(C=C2)Cl)N)C3=NC=NC4=C3C=CN4 [Capivasertib] (first compound max 3 µM, partner max 3 µM)", "Property label": "combination Emax", "Test value": 0.911}
{"Compound": "NC1(C(=O)N[C@@H](CCO)c2ccc(Cl)cc2)CCN(c2ncnc3[nH]ccc23)CC1 [Capivasertib] + CC(C)n1c(=O)n(C)c2cnc3cc(F)c(-c4ccc(OCCCN5CCCCC5)nc4)cc3c21 [AZD1390] (first compound max 10 µM, 7x7, partner max 0.3 µM)", "Property label": "combination Emax", "Test value": 0.364}
{"Compound": "C=CCn1c(=O)c2cnc(Nc3ccc(N4CCN(C)CC4)cc3)nc2n1-c1cccc(C(C)(C)O)n1 [AZD1775] + O=C(c1cc(Cc2n[nH]c(=O)c3ccccc23)ccc1F)N1CCN(C(=O)C2CC2)CC1 [Olaparib] (first compound max 1 µM, partner max 10 µM)", "Property label": "combination Emax", "Test value": 0.856}

Pending compound:
# input For the compound shown here, CC1(C)CCC(CN2CCN(c3ccc(C(=O)NS(=O)(=O)c4ccc(NCC5CCOCC5)c([N+](=O)[O-])c4)c(Oc4cnc5[nH]ccc5c4)c3)CC2)=C(c2ccc(Cl)cc2)C1 [Venetoclax] + C=CCn1c(=O)c2cnc(Nc3ccc(N4CCN(C)CC4)cc3)nc2n1-c1cccc(C(C)(C)O)n1 [AZD1775] (first compound max 1 µM, partner max 1 µM) , give the reported combination Emax.
# output 0.888

* * *

Each entry below lists one item and its recorded Bliss excess value.
test system: KARPAS-422 (B-Cell Non-Hodgkin's Lymphoma); test: Bliss excess, mean over the matrix (fraction); higher = more synergy
# output: bare number, no unit

Solved entries (count: 5):
{"Compound": "CC1(C)CCC(CN2CCN(c3ccc(C(=O)NS(=O)(=O)c4ccc(NCC5CCOCC5)c([N+](=O)[O-])c4)c(Oc4cnc5[nH]ccc5c4)c3)CC2)=C(c2ccc(Cl)cc2)C1 [Venetoclax] + CN(C)CCCOc1ccc(-c2ccc3ncc4c(c3c2)n(C2CCOCC2)c(=O)n4C)cn1 [AZD0156] (first compound max 1 µM, 7x7, partner max 1 µM)", "Bliss excess": 0.0398}
{"Compound": "CCc1c2c(nc3ccc(O)cc13)-c1cc3c(c(=O)n1C2)COC(=O)[C@]3(O)CC [SN-38] + CN(C)CCCOc1ccc(-c2ccc3ncc4c(c3c2)n(C2CCOCC2)c(=O)n4C)cn1 [AZD0156] (first compound max 0.3 µM, 7x7, partner max 1 µM)", "Bliss excess": -0.0862}
{"Compound": "CN(CCO)CC[C@H](CSc1ccccc1)Nc1ccc(S(=O)(=O)NC(=O)c2ccc(N3CCC([C@@H](O)c4ccccc4-c4ccc(Cl)cc4)CC3)cc2)cc1S(=O)(=O)C(F)(F)F [AZD4320] + Cn1cnc2c(F)c(Nc3ccc(Br)cc3Cl)c(C(=O)NOCCO)cc21 [Selumetinib] (first compound max 1 µM, 7x7, partner max 3 µM)", "Bliss excess": -0.0387}
{"Compound": "C=CCn1c(=O)c2cnc(Nc3ccc(N4CCN(C)CC4)cc3)nc2n1-c1cccc(C(C)(C)O)n1 [AZD1775] + O=C(c1cc(Cc2n[nH]c(=O)c3ccccc23)ccc1F)N1CCN(C(=O)C2CC2)CC1 [Olaparib] (first compound max 1 µM, partner max 10 µM)", "Bliss excess": -0.0648}
{"Compound": "O=C(c1cc(Cc2n[nH]c(=O)c3ccccc23)ccc1F)N1CCN(C(=O)C2CC2)CC1 [Olaparib] + COc1nnc2ccc(N3CCC(c4ccc(OCCN5CCN(C)C(=O)[C@H]5C)cc4)CC3)nn12 [AZD5153] (first compound max 10 µM, 7x7, partner max 1 µM)", "Bliss excess": -0.0132}

# input For the compound shown here, CC(=O)c1c(C)c2cnc(Nc3ccc(N4CCNCC4)cn3)nc2n(C2CCCC2)c1=O [Palbociclib] + CC1(C)CCC(CN2CCN(c3ccc(C(=O)NS(=O)(=O)c4ccc(NCC5CCOCC5)c([N+](=O)[O-])c4)c(Oc4cnc5[nH]ccc5c4)c3)CC2)=C(c2ccc(Cl)cc2)C1 [Venetoclax] (first compound max 10 µM, 7x7, partner max 1 µM) , give the reported Bliss excess.
# output 0.0434

# input For the compound shown here, Cc1cc2ncnn2cc1Nc1ncc2c(n1)n(C1CCOCC1)c(=O)n2C [AZD7648] + C=CCn1c(=O)c2cnc(Nc3ccc(N4CCN(C)CC4)cc3)nc2n1-c1cccc(C(C)(C)O)n1 [AZD1775] (first compound max 10 µM, partner max 1 µM) , give the reported Bliss excess.
# output -0.187
